# assay comment: Single ascending oral dose study in healthy volunteers: plasma pharmacokinetics
# Assay type: in vivo, human
# stated conditions: human, plasma, oral, 525 mg, 48 Hours Postdose; 525 mg; read-out: Plasma concentration, Geometric Mean
readout: concentration at 48 h (ng/mL)

| molecule | value reported |
| --- | --- |
| Cn1cc(S(=O)(=O)[C@@](C)(F)C2CCN(C(=O)Nc3ccon3)CC2)c(C(F)F)n1 [Compound I] | 420 |

* * *

# assay comment: Single ascending oral dose study in healthy volunteers: plasma pharmacokinetics
# Type: in vivo, human
# stated conditions: human, plasma, oral, 3 mg; read-out: AUC0-24, Mean

| compound | AUC(0-t) (ng·h/mL) |
| --- | --- |
| Cn1cc(S(=O)(=O)[C@@](C)(F)C2CCN(C(=O)Nc3ccon3)CC2)c(C(F)F)n1 [Compound I] | 521 |
